Test system: 100 A. baumannii strains (50 MDR, 50 non-MDR)
ASSAY TEXT: MIC broth microdilution at IHMA Europe, panel of 100 strains
Assay type: cell-based
CONDITION SUMMARY: Acinetobacter baumannii, A. baumannii IHMA 2181370, Morocco 2020, MDR; read-out: MIC
MIC values by entry
OBSERVABLE: MIC (µg/mL)

INSERT INTO results (compound, tested_on, value_prefix, endpoint_value) VALUES
  ('CO/N=C(\C(=O)N[C@@H]1C(=O)N2C(C(=O)[O-])=C(C[N+]3(C)CCCC3)CS[C@H]12)c1csc(N)n1 [Cefepime, cefepime]', '100 A. baumannii strains (50 MDR, 50 non-MDR)', '>', 32),
  ('Cc1[nH]c(C(=O)Nc2nc3c(N4[C@@H]5CC[C@H]4COC5)cc(C(=O)O)cc3s2)c(Cl)c1Cl [7h]', '100 A. baumannii strains (50 MDR, 50 non-MDR)', '=', 2),
  ('COc1c(N2C[C@@H]3CCCN[C@@H]3C2)c(F)cc2c(=O)c(C(=O)O)cn(C3CC3)c12 [Moxifloxacin, moxifloxacin]', '100 A. baumannii strains (50 MDR, 50 non-MDR)', '=', 8),
  ('C[C@@H](O)[C@H]1C(=O)N2C(C(=O)O)=C(S[C@@H]3CN[C@H](C(=O)N(C)C)C3)[C@H](C)[C@H]12 [Meropenem, meropenem]', '100 A. baumannii strains (50 MDR, 50 non-MDR)', '>', 16),
  ('O=C(O)c1cn(C2CC2)c2cc(N3CCNCC3)c(F)cc2c1=O [ciprofloxacin]', '100 A. baumannii strains (50 MDR, 50 non-MDR)', '>', 16),
  ('CN(C)c1cc(NC(=O)CNC(C)(C)C)c(O)c2c1C[C@H]1C[C@H]3[C@H](N(C)C)C(O)=C(C(N)=O)C(=O)[C@@]3(O)C(O)=C1C2=O [Tigecycline, tigecycline]', '100 A. baumannii strains (50 MDR, 50 non-MDR)', '=', 1),
  ('C[C@@H](O)[C@H]1C(=O)N2C(C(=O)O)=C(SCCNC=N)C[C@H]12 [Imipenem, imipenem]', '100 A. baumannii strains (50 MDR, 50 non-MDR)', '>', 16);

----------
Tested on: 100 A. baumannii strains (50 MDR, 50 non-MDR)
ASSAY TEXT: MIC broth microdilution at IHMA Europe, panel of 100 strains
Type: cell-based
CONDITION SUMMARY: Acinetobacter baumannii, A. baumannii IHMA 2216586, Taiwan 2020, MDR; read-out: MIC
Below, each entry is listed alongside its reported MIC.
OBSERVABLE: MIC (µg/mL)

INSERT INTO results (molecule, unit_tag, value_prefix, endpoint_value) VALUES
  ('O=C(O)c1cn(C2CC2)c2cc(N3CCNCC3)c(F)cc2c1=O', 'µg/mL', '>', 16),
  ('CN(C)c1cc(NC(=O)CNC(C)(C)C)c(O)c2c1C[C@H]1C[C@H]3[C@H](N(C)C)C(O)=C(C(N)=O)C(=O)[C@@]3(O)C(O)=C1C2=O', 'µg/mL', '=', 2),
  ('CO/N=C(\C(=O)N[C@@H]1C(=O)N2C(C(=O)[O-])=C(C[N+]3(C)CCCC3)CS[C@H]12)c1csc(N)n1 [Cefepime, cefepime]', 'µg/mL', '=', 32);

----------
System: Haemophilus influenzae (n = 14)
ASSAY TEXT: MIC broth microdilution at IHMA Europe
Format: cell-based, H. influenzae
CONDITION SUMMARY: Haemophilus influenzae, H. influenzae IHMA N° 1241620; read-out: MIC
OBSERVABLE: MIC

INSERT INTO assay_data (smiles_text, observable, endpoint_value) VALUES
  ('Cc1[nH]c(C(=O)Nc2nc3c(N4CCOCC4)cc(C(=O)O)cc3s2)c(Cl)c1Cl', 'MIC', '0.25 µg/mL'),
  ('C[C@@H](O)[C@H]1C(=O)N2C(C(=O)O)=C(SCCNC=N)C[C@H]12', 'MIC', '0.5 µg/mL'),
  ('C[C@H]1COc2c(N3CCN(C)CC3)c(F)cc3c(=O)c(C(=O)O)cn1c23.C[C@H]1COc2c(N3CCN(C)CC3)c(F)cc3c(=O)c(C(=O)O)cn1c23.O', 'MIC', '≤ 0.004 µg/mL'),
  ('CC1(C)S[C@@H]2[C@H](NC(=O)[C@H](N)c3ccccc3)C(=O)N2[C@H]1C(=O)O', 'MIC', '4 µg/mL'),
  ('Cc1[nH]c(C(=O)Nc2nc3c(N4[C@@H]5CC[C@H]4COC5)cc(C(=O)O)cc3s2)c(Cl)c1Cl', 'MIC', '0.12 µg/mL');

----------
Test system: E. faecium (n = 13)
ASSAY TEXT: MIC broth microdilution at IHMA Europe
Type: cell-based
CONDITION SUMMARY: Enterococcus faecium, E. faecium IHMA N° 2083787; read-out: MIC
We begin with a simple list: items and their reported MIC.
OBSERVABLE: MIC (µg/mL)

INSERT INTO assay_data (smiles_text, unit_tag, value_prefix, endpoint_value) VALUES
  ('Cc1[nH]c(C(=O)Nc2nc3c(N4CCOCC4)cc(C(=O)O)cc3s2)c(Cl)c1Cl', 'µg/mL', '=', 0.06),
  ('CC1(C)S[C@@H]2[C@H](NC(=O)[C@H](N)c3ccccc3)C(=O)N2[C@H]1C(=O)O', 'µg/mL', '>', 32),
  ('C[C@@H](O)[C@H]1C(=O)N2C(C(=O)O)=C(SCCNC=N)C[C@H]12', 'µg/mL', '>', 32),
  ('Cc1[nH]c(C(=O)Nc2nc3c(N4[C@@H]5CC[C@H]4COC5)cc(C(=O)O)cc3s2)c(Cl)c1Cl', 'µg/mL', '≤', 0.03),
  ('C[C@H]1COc2c(N3CCN(C)CC3)c(F)cc3c(=O)c(C(=O)O)cn1c23.C[C@H]1COc2c(N3CCN(C)CC3)c(F)cc3c(=O)c(C(=O)O)cn1c23.O', 'µg/mL', '=', 32);

----------
A collection of compounds and their measured MIC
Tested on: A. baumannii ATCC 17978
ASSAY TEXT: MIC broth microdilution (CLSI)
Type: cell-based
CONDITION SUMMARY: Acinetobacter baumannii, ATCC17978; read-out: MIC
OBSERVABLE: MIC (µg/mL)

INSERT INTO measurements (compound, observable, value_prefix, endpoint_value) VALUES
  ('Cc1[nH]c(C(=O)Nc2nc3c(N4CCOCC4C)cc(C(=O)O)cc3s2)c(Cl)c1Cl (centres unmarked) [7b]', 'MIC', '=', 4),
  ('Cc1[nH]c(C(=O)Nc2nc3c(N4CCCC4)cc(C(=O)O)cc3s2)c(Cl)c1Cl [7j]', 'MIC', '=', 4),
  ('Cc1[nH]c(C(=O)Nc2nc3c(N4CCOC[C@H]4C)cc(C(=O)O)cc3s2)c(Cl)c1Cl [7c]', 'MIC', '=', 8),
  ('Cc1[nH]c(C(=O)Nc2nc3c(N4CCC5(CC4)OCCO5)cc(C(=O)O)cc3s2)c(Cl)c1Cl [7r]', 'MIC', '=', 8),
  ('Cc1[nH]c(C(=O)Nc2nc3c(N4CCOCC4)cc(C(=O)O)cc3s2)cc1Cl [16a]', 'MIC', '>', 64),
  ('Cc1[nH]c(C(=O)Nc2nc3c(N4CC(C)OC(C)C4)cc(C(=O)O)cc3s2)c(Cl)c1Cl (centres unmarked) [7f]', 'MIC', '=', 1),
  ('Cc1[nH]c(C(=O)Nc2nc3c(N4CC[S+]([O-])CC4)cc(C(=O)O)cc3s2)c(Cl)c1Cl [7s]', 'MIC', '>', 64),
  ('COC[C@@H]1CCCN1c1cc(C(=O)O)cc2sc(NC(=O)c3[nH]c(C)c(Cl)c3Cl)nc12 [7o]', 'MIC', '=', 16),
  ('COCCCNc1cc(C(=O)O)cc2sc(NC(=O)c3[nH]c(C)c(Cl)c3Cl)nc12.N [8c]', 'MIC', '=', 2),
  ('Cc1[nH]c(C(=O)Nc2nc3c(N4CCOC[C@@H]4C)cc(C(=O)O)cc3s2)c(Cl)c1Cl [7d]', 'MIC', '=', 8),
  ('Cc1[nH]c(C(=O)Nc2nc3c(N4C[C@H]5CC[C@@H](C4)O5)cc(C(=O)O)cc3s2)c(Cl)c1Cl [7g]', 'MIC', '=', 1),
  ('Cc1[nH]c(C(=O)Nc2nc3c(N4[C@@H]5CC[C@H]4COC5)cc(C(=O)O)cc3s2)c(Cl)c1Cl [7h]', 'MIC', '=', 2),
  ('Cc1[nH]c(C(=O)Nc2nc3c(N4CCC(O)CC4)cc(C(=O)O)cc3s2)c(Cl)c1Cl [7p]', 'MIC', '>', 64),
  ('Cc1[nH]c(C(=O)Nc2nc3c(N4CC[C@H](N)C4)cc(C(=O)O)cc3s2)c(Cl)c1Cl.Cl [8a]', 'MIC', '>', 32),
  ('COCC1CCCN1c1cc(C(=O)O)cc2sc(NC(=O)c3[nH]c(C)c(Cl)c3Cl)nc12 (centres unmarked) [7n]', 'MIC', '=', 8),
  ('Cc1[nH]c(C(=O)Nc2nc3c(N4CCOC(C)C4)cc(C(=O)O)cc3s2)c(Cl)c1Cl (centres unmarked) [7e]', 'MIC', '=', 8),
  ('Cc1[nH]c(C(=O)Nc2nc3c(N4CCOC4=O)cc(C(=O)O)cc3s2)c(Cl)c1Cl [7m]', 'MIC', '>', 64);
